Source listed as paper PMC12136037.

- subject.of.test: ~100 representative kinases (Homo sapiens, UniProt O75582)
- Construct: Recombinant protein kinase domains with a concentration of 2 μM
- Sequence (O75582 whole entry, the tested form may be a part): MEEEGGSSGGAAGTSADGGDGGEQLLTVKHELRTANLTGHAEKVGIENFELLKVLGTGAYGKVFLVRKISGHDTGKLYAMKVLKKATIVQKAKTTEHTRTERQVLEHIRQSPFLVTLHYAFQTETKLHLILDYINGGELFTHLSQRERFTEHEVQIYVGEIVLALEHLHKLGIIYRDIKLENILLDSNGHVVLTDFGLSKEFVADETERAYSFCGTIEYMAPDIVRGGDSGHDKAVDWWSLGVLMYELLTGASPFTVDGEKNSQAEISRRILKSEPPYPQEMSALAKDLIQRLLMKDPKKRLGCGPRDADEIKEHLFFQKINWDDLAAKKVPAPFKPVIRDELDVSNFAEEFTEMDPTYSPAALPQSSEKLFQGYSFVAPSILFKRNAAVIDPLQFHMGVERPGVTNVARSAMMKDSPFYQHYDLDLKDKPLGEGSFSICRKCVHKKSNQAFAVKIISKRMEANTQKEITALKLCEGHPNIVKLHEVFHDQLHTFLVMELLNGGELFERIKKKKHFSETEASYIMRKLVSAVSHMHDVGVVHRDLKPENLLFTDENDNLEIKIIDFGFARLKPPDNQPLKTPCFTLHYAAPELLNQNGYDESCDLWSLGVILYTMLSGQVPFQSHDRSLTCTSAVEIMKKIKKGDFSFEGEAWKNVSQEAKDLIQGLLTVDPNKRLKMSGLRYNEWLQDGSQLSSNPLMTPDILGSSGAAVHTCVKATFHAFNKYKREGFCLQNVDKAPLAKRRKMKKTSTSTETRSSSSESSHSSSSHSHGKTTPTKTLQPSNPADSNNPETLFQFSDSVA
- assay.protocol: DSF 100 kinase selectivity screen;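 for dTm: compound tested at 20 µM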
- Format: binding
- measurement.conditions: Protein RPS6KA5; DSF; average of three replicates
The entries below are paired with their reported dTm.
assay.readout: dTm

1) Cc1ccc(-n2nc(C(C)(C)C)cc2NC(=O)Nc2cccc(-c3c[nH]c4ncnc(N5CCOCC5)c34)c2)cc1 = 11.96 K
2) CCNc1nc(Nc2cc(F)c(C(=O)N3CCOCC3)cc2OC)ncc1C(F)(F)F = 3.91 K
3) O=C(Nc1cccc(-c2c[nH]c3ncnc(N4CCOCC4)c23)c1)C1(C(=O)Nc2ccc(F)cc2F)CC1 = 0.48 K
4) COc1cc(S(C)(=O)=O)ccc1Nc1nc(N(C)C)c2c(Cl)c[nH]c2n1 = 1.80 K
5) COc1ccc(NC(=O)C2(C(=O)Nc3cccc(-c4c[nH]c5ncnc(N6CCOCC6)c45)c3)CC2)cc1 = 0.21 K
6) O=C(Nc1cccc(-c2c[nH]c3ncnc(N4CCOCC4)c23)c1)C1(C(=O)Nc2ccc(F)c(Cl)c2)CC1 = -1.56 K
7) O=C(Nc1ccccc1)C1(C(=O)Nc2cccc(-c3c[nH]c4ncnc(N5CCOCC5)c34)c2)CC1 = 6.52 K

====

- subject.of.test: ~100 representative kinases (Homo sapiens, UniProt Q13627)
- Construct: Recombinant protein kinase domains with a concentration of 2 μM
- assay.protocol: DSF 100 kinase selectivity screen;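 for dTm: compound tested at 20 µM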
- Format: binding
- measurement.conditions: Protein DYRK1A; average of three replicates
assay.readout: dTm (K)

1. Cc1ccc(C(=O)Nc2ccc(CN3CCN(C)CC3)c(C(F)(F)F)c2)cc1C#Cc1cnc2[nH]ncc2c1 [GZD-824, reference compound] = -2.15
2. COc1cc(S(C)(=O)=O)ccc1Nc1nc(N(C)C)c2c(Cl)c[nH]c2n1 [Compound 37] = 2.45
3. COc1cc2c(Oc3ccc(NC(=O)C4(C(=O)Nc5ccc(F)cc5)CC4)cc3F)ccnc2cc1OCCCN1CCOCC1 [Foretinib, reference compound] = 4.04
4. Cn1cc(-c2c[nH]c3ncnc(N4CCOCC4)c23)cc1C#N [PFE-360] = 3.25
5. O=C(Nc1cccc(-c2c[nH]c3ncnc(N4CCOCC4)c23)c1)C1(C(=O)Nc2ccc(F)c(F)c2)CC1 [Compound 17] = 4.77
6. O=C(Nc1cccc(-c2c[nH]c3ncnc(N4CCOCC4)c23)c1)c1cccn(-c2ccc(F)cc2)c1=O [Compound 4] = 2.17
7. Cc1ccc(C(=O)Nc2ccc(CN3CCN(C)CC3)c(C(F)(F)F)c2)cc1C#Cc1c[nH]c2ncnc(N3CCOCC3)c12 [Compound 1] = -1.40

====

- Tested on: ~100 representative kinases
- assay.protocol: DSF 100 kinase selectivity screen
- Type: binding
- measurement.conditions: number of kinases with thermal shift >5 K divided by total number of kinases screened
assay.readout: S(5K)

1. COc1ccc(NC(=O)C2(C(=O)Nc3cccc(-c4c[nH]c5ncnc(N6CCOCC6)c45)c3)CC2)cc1 = 0.10
2. O=C(Nc1cccc(-c2c[nH]c3ncnc(N4CCOCC4)c23)c1)C1(C(=O)Nc2cccc3c2CCC3)CC1 = 0.15
3. O=C(Nc1cccc(-c2c[nH]c3ncnc(N4CCOCC4)c23)c1)C1(C(=O)Nc2ccc(F)c(F)c2)CC1 = 0.32
4. O=C(Nc1ccc(Cl)cc1)C1(C(=O)Nc2cccc(-c3c[nH]c4ncnc(N5CCOCC5)c34)c2)CC1 = 0.37

====

Entries and their dTm
- subject.of.test: ~100 representative kinases (Homo sapiens)
- Construct: Recombinant protein kinase domains with a concentration of 2 μM
- assay.protocol: DSF 100 kinase selectivity screen;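 for dTm: compound tested at 20 µM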
- Assay type: binding
- measurement.conditions: Protein CDC42BPA; average of three replicates
assay.readout: dTm (K)

1. Cc1ccc(-n2nc(C(C)(C)C)cc2NC(=O)Nc2cccc(-c3c[nH]c4nc(Cl)nc(N5CCOCC5)c34)c2)cc1 = 0.77
2. Cc1ccc(C(=O)Nc2ccc(CN3CCN(C)CC3)c(C(F)(F)F)c2)cc1C#Cc1cnc2cccnn12 [Ponatinib, reference compound] = -1.37
3. CCc1ccc(NC(=O)C2(C(=O)Nc3cccc(-c4c[nH]c5ncnc(N6CCOCC6)c45)c3)CC2)cc1 = -0.98
4. O=C(Nc1ccccc1)C1(C(=O)Nc2cccc(-c3c[nH]c4ncnc(N5CCOCC5)c34)c2)CC1 = -0.16
5. O=C(Nc1cccc(-c2c[nH]c3ncnc(N4CCOCC4)c23)c1)C1(C(=O)Nc2ccc(F)c(Br)c2F)CC1 = -0.44
6. O=C(Nc1cccc(-c2c[nH]c3ncnc(N4CCOCC4)c23)c1)C1(C(=O)Nc2ccc(F)c(F)c2)CC1 = -0.72
7. O=C(Nc1cccc(-c2c[nH]c3ncnc(N4CCOCC4)c23)c1)C1(C(=O)Nc2ccc(F)c(Br)c2)CC1 = 0.14
8. O=C(Nc1ccc(F)cc1)C1(C(=O)Nc2cccc(-c3c[nH]c4ncnc(N5CCOCC5)c34)c2)CC1 = -0.78
9. O=C(Nc1cccc(-c2c[nH]c3ncnc(N4CCOCC4)c23)c1)C1(C(=O)Nc2cc(Br)c(F)cc2F)CC1 = -0.57
10. Cc1ccc(-n2nc(C(C)(C)C)cc2NC(=O)Nc2cccc(-c3c[nH]c4ncnc(N5CCOCC5)c34)c2)cc1 = -0.10
11. COc1cc2c(Oc3ccc(NC(=O)C4(C(=O)Nc5ccc(F)cc5)CC4)cc3F)ccnc2cc1OCCCN1CCOCC1 [Foretinib, reference compound] = 0.32
12. Cc1cc(F)ccc1NC(=O)C1(C(=O)Nc2cccc(-c3c[nH]c4ncnc(N5CCOCC5)c34)c2)CC1 = -1.23
13. Cc1cc(NC(=O)C2(C(=O)Nc3ccc(F)cc3)CC2)cc(-c2c[nH]c3ncnc(N4CCOCC4)c23)c1 = -0.90
14. Cc1ccc(C(=O)Nc2ccc(CN3CCN(C)CC3)c(C(F)(F)F)c2)cc1C#Cc1c[nH]c2ncnc(N3CCOCC3)c12 = -1.51

====

- subject.of.test: ~100 representative kinases (Homo sapiens)
- Construct: Recombinant protein kinase domains with a concentration of 2 μM
- assay.protocol: DSF 100 kinase selectivity screen;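 for dTm: compound tested at 20 µM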
- Format: binding
- measurement.conditions: protein PAK4; average of three replicates
Quick rule for you: dTm under 0.5 K gets class 1, anything else gets class 0.

1) O=C(Nc1ccc(F)cc1)C1(C(=O)Nc2cccc(-c3c[nH]c4ncnc(N5CCOCC5)c34)c2)CC1 = class 1
2) Cc1ccc(C(=O)Nc2ccc(CN3CCN(C)CC3)c(C(F)(F)F)c2)cc1C#Cc1cnc2[nH]ncc2c1 [GZD-824, reference compound] = class 0
3) CNC(=O)c1cc(Oc2ccc(NC(=O)Nc3cc(C(C)(C)C)nn3-c3ccc4ncccc4c3)c(F)c2)ccn1 [Rebastinib, reference compound] = class 0
4) CC(=O)N1CCN(c2nc(Cl)nc3[nH]cc(-c4cccc(NC(=O)Nc5cc(C(C)(C)C)nn5-c5ccc(C)cc5)c4)c23)CC1 = class 1
5) Cc1cc(NC(=O)C2(C(=O)Nc3cccc(-c4c[nH]c5ncnc(N6CCOCC6)c45)c3)CC2)ccc1F = class 1
6) Cc1cc(F)ccc1NC(=O)C1(C(=O)Nc2cccc(-c3c[nH]c4ncnc(N5CCOCC5)c34)c2)CC1 = class 1

====

Listed next: entries and their corresponding dTm.
- subject.of.test: ~100 representative kinases (Homo sapiens, UniProt O00444)
- Construct: Recombinant protein kinase domains with a concentration of 2 μM
- Sequence (O00444 1-970): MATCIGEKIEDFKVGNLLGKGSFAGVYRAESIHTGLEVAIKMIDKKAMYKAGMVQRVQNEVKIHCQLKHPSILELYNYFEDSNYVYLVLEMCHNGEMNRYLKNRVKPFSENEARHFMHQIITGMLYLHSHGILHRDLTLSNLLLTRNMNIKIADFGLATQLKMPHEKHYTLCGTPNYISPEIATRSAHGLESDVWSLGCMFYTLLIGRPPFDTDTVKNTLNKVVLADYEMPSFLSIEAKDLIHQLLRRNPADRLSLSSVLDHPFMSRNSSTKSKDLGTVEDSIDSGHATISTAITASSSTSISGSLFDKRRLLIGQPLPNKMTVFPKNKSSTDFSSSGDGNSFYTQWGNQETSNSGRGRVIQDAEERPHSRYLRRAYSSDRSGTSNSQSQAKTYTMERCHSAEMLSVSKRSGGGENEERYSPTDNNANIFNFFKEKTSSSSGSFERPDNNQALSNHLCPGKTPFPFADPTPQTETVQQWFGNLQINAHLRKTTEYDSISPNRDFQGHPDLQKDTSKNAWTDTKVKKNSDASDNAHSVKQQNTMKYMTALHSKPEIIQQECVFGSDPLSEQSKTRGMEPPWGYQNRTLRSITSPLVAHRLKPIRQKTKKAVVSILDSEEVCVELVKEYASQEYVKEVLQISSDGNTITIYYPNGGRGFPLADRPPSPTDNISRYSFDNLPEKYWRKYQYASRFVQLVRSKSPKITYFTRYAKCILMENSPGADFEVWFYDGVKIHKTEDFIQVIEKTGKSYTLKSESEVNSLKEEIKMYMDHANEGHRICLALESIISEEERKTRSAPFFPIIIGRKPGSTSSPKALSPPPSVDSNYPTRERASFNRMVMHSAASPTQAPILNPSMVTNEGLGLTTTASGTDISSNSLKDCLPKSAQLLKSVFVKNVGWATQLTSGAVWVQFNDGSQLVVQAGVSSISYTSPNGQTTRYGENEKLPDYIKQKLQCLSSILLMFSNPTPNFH
- assay.protocol: DSF 100 kinase selectivity screen;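 for dTm: compound tested at 20 µM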
- Format: binding
- measurement.conditions: protein PLK4; average of three replicates
assay.readout: dTm (K)

1) O=C(Nc1cccc(-c2c[nH]c3ncnc(N4CCOCC4)c23)c1)C1(C(=O)Nc2ccc(F)c(F)c2)CC1 = 9.62
2) O=C(Nc1cccc(-c2c[nH]c3ncnc(N4CCOCC4)c23)c1)C1(C(=O)Nc2cccc3c2CCC3)CC1 = 7.44
3) CCc1ccc(NC(=O)C2(C(=O)Nc3cccc(-c4c[nH]c5ncnc(N6CCOCC6)c45)c3)CC2)cc1 = 9.77
4) COc1cc(S(C)(=O)=O)ccc1Nc1nc(N(C)C)c2c(Cl)c[nH]c2n1 = 4.57
5) CCNc1nc(Nc2cc(F)c(C(=O)N3CCOCC3)cc2OC)ncc1C(F)(F)F = 1.52
6) O=C(Nc1cc(F)cc(Br)c1)C1(C(=O)Nc2cccc(-c3c[nH]c4ncnc(N5CCOCC5)c34)c2)CC1 = 0.00
7) CC(C)(C)c1cc(NC(=O)Nc2cccc(-c3c[nH]c4ncnc(N5CCOCC5)c34)c2)n(-c2ccc3ncccc3c2)n1 = 3.84
